# Tested on: BaF3
# method_notes: Antiproliferative activity against mouse BaF3 cells stably expressing EGFR L858R/T790M/C797S mutant assessed as inhibition of cell growth incubated for 72 hrs by CCK-8 assay
# Assay type: functional, cell-based
# condition_parameters: BaF3, 72 h
// boundary case: IC50 equal to 3000 nM maps to NO; strictly smaller maps to YES

As a guide, the following entries are already answered.
CCS(=O)(=O)n1cc(-c2nc(Nc3cc(Cl)c(N4CCC(N5CCN(C)CC5)CC4)cc3OC)ncc2Cl)c2ccccc21 = YES
CCOc1cc(N2CCC(N3CCN(C)CC3)CC2)c(Cl)cc1Nc1ncc(Cl)c(-c2cn(S(=O)(=O)CC)c3ccccc23)n1 = NO
CCS(=O)(=O)n1cc(-c2nc(Nc3cc(Cl)c(N4CCC(N5CCN(C)CC5)CC4)cc3OC(C)C)ncc2Cl)c2ccccc21 = YES
C=CC(=O)Nc1cc(Nc2nccc(-c3cn(C)c4ccccc34)n2)c(OC)cc1N(C)CCN(C)C = NO
CCS(=O)(=O)n1cc2c3ccc(cc31)OCCCCCCOc1cc(c(C)cc1N1CCOCC1)Nc1ncc(Cl)c-2n1 = YES

Consider `CCS(=O)(=O)n1cc2c3ccc(cc31)OCCCCCCCCOc1cc(ccc1N1CCOCC1)Nc1ncc(Cl)c-2n1` . Does its IC50 lie strictly below 3000 nM?
YES

Next compound up: `CCS(=O)(=O)n1cc(-c2nc(Nc3cc(Cl)c(N4CCC(N5CCN(C)CC5)CC4)cc3C)ncc2Cl)c2ccccc21`
YES

Next compound up: `CCS(=O)(=O)n1cc2c3ccc(cc31)OCCCCCCOc1cc(c(C3CC3)cc1N1CCOCC1)Nc1ncc(Cl)c-2n1`
YES

Next compound up: `CCS(=O)(=O)n1cc2c3ccc(cc31)OCCCCCOc1cc(ccc1N1CCOCC1)Nc1ncc(Cl)c-2n1`
YES

Next compound up: `CCS(=O)(=O)n1cc2c3ccc(cc31)OCCCCCCCOc1cc(ccc1N1CCOCC1)Nc1ncc(Cl)c-2n1`
YES

Next compound up: `CCS(=O)(=O)n1cc2c3ccc(cc31)OCCCCCCOc1cc(c(Cl)cc1N1CCOCC1)Nc1ncc(Cl)c-2n1`
YES

Origin of measurements: ChEMBL document CHEMBL5154883
